B1: SPOPL (parent)
chain: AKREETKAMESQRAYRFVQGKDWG

Variants of: B1
Assay: protein stability index of a GFP-peptide fusion (GPS, HEK-293T) (PSI 1-6); higher = more stable;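 note: lentivirally expressed fusions sorted by FACS into six bins by GFP to DsRed ratio, PSI derived from sequencing read proportions per bin multiplied by bin number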
Test Context: c terminus: a fixed tail appended
Returns met if the recorded protein stability index is greater than or equal to 2, and not met otherwise.

Decide: is the reported value of protein stability index for AKREETKAMYSQRAYRFVQGKDWG equal to or greater than 2?
not met

Could you verify whether the entry AKRETTKAMESQRAYRFVQGKDWG shows protein stability index of no less than 2?
met

Please tell me: is the variant AKREETKGMESQRAYRFVQGKDWG at or over 2 in terms of protein stability index?
met

Is the recorded value of protein stability index equal to or greater than 2 for this variant? AKREETKAMESQRAFRFVQGKDWG
not met

In plain terms: is recorded protein stability index at least 2 for AKREETKLMESQRAYRFVQGKDWG ?
met

Does AKREETKAMESQRAYRFDQGKDWG have a reported protein stability index of at least 2?
met

Record AKREETKAMESQRADRFVQGKDWG ; criterion: protein stability index no lower than 2. Met?
met

Would you say AKREETKAMESQRRYRFVQGKDWG shows protein stability index at minimum 2?
met

Provenance of the data: the supplement of paper PMC10567573
